- System: UACC893
- Test method notes: -log10 GI50 (growth inhibition 50%) (-log10(M)); higher = more potent growth inhibition
Parameter: -log10 GI50

[[record]]
compound = "COC1=C2C[C@@H](C)C[C@H](OC)[C@H](O)[C@@H](C)/C=C(\\C)[C@H](OC(N)=O)[C@@H](OC)/C=C\\C=C(/C)C(=O)NC(=CC1=O)C2=O [Geldanamycin]"
system_under_test = "UACC893"
parameter = "-log10 GI50"
relation_sign = "="
measurement = 8.14

[[record]]
compound = "CC(=O)O[C@H]1C(=O)[C@@]2(C)[C@H]([C@H](OC(=O)c3ccccc3)[C@]3(O)C[C@H](OC(=O)[C@H](O)[C@@H](NC(=O)c4ccccc4)c4ccccc4)C(C)=C1C3(C)C)[C@]1(OC(C)=O)CO[C@@H]1C[C@@H]2O [Paclitaxel]"
system_under_test = "UACC893"
parameter = "-log10 GI50"
relation_sign = "="
measurement = 7.93

[[record]]
compound = "O=c1[nH]cc(F)c(=O)[nH]1 [Fluorouracil]"
system_under_test = "UACC893"
parameter = "-log10 GI50"
relation_sign = "="
measurement = 3.45

[[record]]
compound = "CC(C)Oc1ccc(C(=O)N[C@H](CNC(=O)CN(C)C)Cc2ccc(-c3cn4cccc([C@H](C)O)c4n3)cc2)cc1Cl"
system_under_test = "UACC893"
parameter = "-log10 GI50"
relation_sign = "="
measurement = 7.7

[[record]]
compound = "O=C(O)C(=O)O.[NH-][C@@H]1CCCC[C@H]1[NH-].[Pt+2] [Oxaliplatin]"
system_under_test = "UACC893"
parameter = "-log10 GI50"
relation_sign = "="
measurement = 3.83

[[record]]
compound = "CC(=O)O[C@@]12CO[C@@H]1C[C@H](O)[C@@]1(C)C(=O)[C@H](O)C3=C(C)[C@@H](OC(=O)[C@H](O)[C@@H](NC(=O)OC(C)(C)C)c4ccccc4)C[C@@](O)([C@@H](OC(=O)c4ccccc4)[C@H]21)C3(C)C [Docetaxel]"
system_under_test = "UACC893"
parameter = "-log10 GI50"
relation_sign = "="
measurement = 7.77

[[record]]
compound = "CC(=O)Nc1cccc(-n2c(=O)n(C3CC3)c(=O)c3c(Nc4ccc(I)cc4F)n(C)c(=O)c(C)c32)c1"
system_under_test = "UACC893"
parameter = "-log10 GI50"
relation_sign = "="
measurement = 5.77

[[record]]
compound = "O=C1NC(=O)/C(=C/c2ccc3nccc(-c4ccncc4)c3c2)S1"
system_under_test = "UACC893"
parameter = "-log10 GI50"
relation_sign = "="
measurement = 7.24

[[record]]
compound = "CO[C@H]1C[C@@H]2CC[C@@H](C)[C@@](O)(O2)C(=O)C(=O)N2CCCC[C@H]2C(=O)O[C@H]([C@H](C)C[C@@H]2CC[C@@H](O)[C@H](OC)C2)CC(=O)[C@H](C)/C=C(\\C)[C@@H](O)[C@@H](OC)C(=O)[C@H](C)C[C@H](C)/C=C/C=C/C=C/1C [Rapamycin]"
system_under_test = "UACC893"
parameter = "-log10 GI50"
relation_sign = "<"
measurement = 3.78

[[record]]
compound = "CC[C@@]1(O)C(=O)OCc2c1cc1n(c2=O)Cc2cc3c(CN(C)C)c(O)ccc3nc2-1 [Topotecan]"
system_under_test = "UACC893"
parameter = "-log10 GI50"
relation_sign = "="
measurement = 6.59

[[record]]
compound = "N.N.[Cl][Pt][Cl] [Cisplatin]"
system_under_test = "UACC893"
parameter = "-log10 GI50"
relation_sign = "="
measurement = 3.76

[[record]]
compound = "O=C(O)C1(C(=O)O)CCC1.[NH2-].[NH2-].[Pt+2] [Carboplatin]"
system_under_test = "UACC893"
parameter = "-log10 GI50"
relation_sign = "="
measurement = 3.04

[[record]]
compound = "Nc1ccn([C@@H]2O[C@H](CO)[C@@H](O)C2(F)F)c(=O)n1 [Gemcitabine]"
system_under_test = "UACC893"
parameter = "-log10 GI50"
relation_sign = "="
measurement = 3.54

[[record]]
compound = "COc1cccc2c1C(=O)c1c(O)c3c(c(O)c1C2=O)C[C@@](O)(C(=O)CO)C[C@@H]3O[C@H]1C[C@H](N)[C@H](O)[C@H](C)O1 [Doxorubicin]"
system_under_test = "UACC893"
parameter = "-log10 GI50"
relation_sign = "="
measurement = 6.14

[[record]]
compound = "CCC1=C[C@@H]2CN(C1)Cc1c([nH]c3ccccc13)[C@@](C(=O)OC)(c1cc3c(cc1OC)N(C)[C@H]1[C@@](O)(C(=O)OC)[C@H](OC(C)=O)[C@]4(CC)C=CCN5CC[C@]31[C@@H]54)C2 [Vinorelbine]"
system_under_test = "UACC893"
parameter = "-log10 GI50"
relation_sign = "="
measurement = 7.96

[[record]]
compound = "COc1cc2ncnc(Nc3cccc(Cl)c3)c2cc1OC [AG1478]"
system_under_test = "UACC893"
parameter = "-log10 GI50"
relation_sign = "="
measurement = 6.39

[[record]]
compound = "CCn1cc(-c2ccnc3[nH]c(-c4cccc(CN(C)C)c4)cc23)c(-c2ccc(NC(=O)N(C)C)cc2)n1"
system_under_test = "UACC893"
parameter = "-log10 GI50"
relation_sign = "="
measurement = 5.06

[[record]]
compound = "CCNCCCNC/C=C\\CNCCCNCC"
system_under_test = "UACC893"
parameter = "-log10 GI50"
relation_sign = "="
measurement = 3.63


====

- System: MDAMB157
- Test method notes: -log10 GI50 (growth inhibition 50%) (-log10(M)); higher = more potent growth inhibition
Form field: -log10 GI50 (one value per entry).
Parameter: -log10 GI50

[[record]]
compound = "COc1cccc(-c2cc(=O)c3ccccc3o2)c1N"
parameter = "-log10 GI50"
measurement = "< 4.3"

[[record]]
compound = "CS(=O)(=O)CCNCc1ccc(-c2ccc3ncnc(Nc4ccc(OCc5cccc(F)c5)c(Cl)c4)c3c2)o1 [Lapatinib]"
parameter = "-log10 GI50"
measurement = "< 4.78"

[[record]]
compound = "Cn1cnc2c(F)c(Nc3ccc(Br)cc3Cl)c(C(=O)NOCCO)cc21 [AZD6244]"
parameter = "-log10 GI50"
measurement = "< 4.3"


====

- Tested on: HCC1954
- Test method notes: -log10 GI50 (growth inhibition 50%) (-log10(M)); higher = more potent growth inhibition
Parameter: -log10 GI50

[[record]]
compound = "COc1cccc(-c2cc(=O)c3ccccc3o2)c1N"
relation_sign = "<"
measurement = 4.3

[[record]]
compound = "Cc1[nH]c2ccccc2c1CCNCc1ccc(/C=C/C(=O)NO)cc1 [LBH589]"
relation_sign = "="
measurement = 6.43

[[record]]
compound = "Cc1cc(C(=O)N2CCN(c3cccc(Cl)c3)CC2)n(-c2ccccc2)n1 [XRP44X]"
relation_sign = "="
measurement = 6.3

[[record]]
compound = "O=c1[nH]c2ccccc2n1C1CCN(Cc2ccc(-c3[nH]c4cc5ncnc5cc4nc3-c3ccccc3)cc2)CC1 [Akt inhibitor VIII]"
relation_sign = "="
measurement = 5.08


====

- System: LY2
- Test method notes: -log10 GI50 (growth inhibition 50%) (-log10(M)); higher = more potent growth inhibition
Measured -log10 GI50 of individual entries
Parameter: -log10 GI50

[[record]]
compound = "CC(=O)O[C@@]12CO[C@@H]1C[C@H](O)[C@@]1(C)C(=O)[C@H](O)C3=C(C)[C@@H](OC(=O)[C@H](O)[C@@H](NC(=O)OC(C)(C)C)c4ccccc4)C[C@@](O)([C@@H](OC(=O)c4ccccc4)[C@H]21)C3(C)C"
system_under_test = "LY2"
relation_sign = "="
measurement = 8.2

[[record]]
compound = "COc1cc(Nc2c(C#N)cnc3cc(OCCCN4CCN(C)CC4)c(OC)cc23)c(Cl)cc1Cl"
system_under_test = "LY2"
relation_sign = "="
measurement = 5.66

[[record]]
compound = "Cc1ccc(C(=O)N(CCCN)[C@@H](c2nc3cc(Cl)ccc3c(=O)n2Cc2ccccc2)C(C)C)cc1"
system_under_test = "LY2"
relation_sign = "="
measurement = 6.06

[[record]]
compound = "O=C1c2ccccc2-[n+]2ccc3c([nH]c4ccccc43)c21"
system_under_test = "LY2"
relation_sign = "="
measurement = 8.1

[[record]]
compound = "C/C(=C\\c1csc(C)n1)[C@@H]1C[C@@H]2O[C@]2(C)CCC[C@H](C)[C@H](O)[C@@H](C)C(=O)C(C)(C)[C@@H](O)CC(=O)N1 [Ixabepilone]"
system_under_test = "LY2"
relation_sign = "="
measurement = 8.22

[[record]]
compound = "CN(Cc1cnc2nc(N)nc(N)c2n1)c1ccc(C(=O)N[C@@H](CCC(=O)O)C(=O)O)cc1 [Methotrexate]"
system_under_test = "LY2"
relation_sign = "="
measurement = 7.47

[[record]]
compound = "O=C1NC(=O)/C(=C/c2ccc3nccc(-c4ccncc4)c3c2)S1"
system_under_test = "LY2"
relation_sign = "="
measurement = 5.87

[[record]]
compound = "COc1cc2ncnc(Nc3cccc(Cl)c3)c2cc1OC"
system_under_test = "LY2"
relation_sign = "<"
measurement = 3.78

[[record]]
compound = "CC(C(C)N1CC(=O)NC(=O)C1)N1CC(=O)NC(=O)C1 (stereo not drawn)"
system_under_test = "LY2"
relation_sign = "="
measurement = 5.97

[[record]]
compound = "COc1ccc(C2=N[C@@H](c3ccc(Cl)cc3)[C@@H](c3ccc(Cl)cc3)N2C(=O)N2CCNC(=O)C2)c(OC(C)C)c1"
system_under_test = "LY2"
relation_sign = "="
measurement = 5.29

[[record]]
compound = "Cn1cnc2c(F)c(Nc3ccc(Br)cc3Cl)c(C(=O)NOCCO)cc21"
system_under_test = "LY2"
relation_sign = "<"
measurement = 4.3

[[record]]
compound = "CC[C@@]1(O)C(=O)OCc2c1cc1n(c2=O)Cc2cc3c(CN(C)C)c(O)ccc3nc2-1"
system_under_test = "LY2"
relation_sign = "="
measurement = 6.59

[[record]]
compound = "CC[C@H](CO)Nc1nc(NCc2ccccc2O)c2ncn(C(C)C)c2n1"
system_under_test = "LY2"
relation_sign = "="
measurement = 5.46

